The measured values listed here are drawn from PubChem BioAssay AID179.

# Tested on: CEM cells HIV-1 protection, formazan growth assay
# experiment: NCI AIDS Antiviral Assay;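 active = compounds giving half or more protection of infected cells from virus-caused growth loss, again on retest; inactive = the rest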
The categories you may choose from are 1 (yes) = active, 0 (no) = inactive

Query :: What is the recorded call for this molecule in the test? COC(=O)[C@H](COC(=O)/C=C/c1ccc(OC(C)=O)c(OC(C)=O)c1)NC(=O)/C=C/c1ccc(OC(C)=O)c(OC(C)=O)c1
Result :: 0 (no)

Query :: Fill in: this test's call for COC(=O)C1(O)C(c2ccccc2)NC2(C)CCCC21 (stereo not drawn) is ___
Result :: 0 (no)

Query :: What classification did CCOC(=O)/C(=C\n1c(=O)sc2ccccc21)C(=O)c1ccccc1 end up with in this test?
Result :: 0 (no)

Query :: What did the test return for Cc1cc(S(=O)(=O)Nc2n[nH]c(-c3ccc(Cl)cn3)n2)c(S)cc1Cl ?
Result :: 1 (yes)

Query :: Record request — test call for CC(C)=CCC[C@@H](C)C1=CC(=O)C(C)=C(O)C1=O
Result :: 0 (no)

Query :: Give the logged outcome of this assay for the following molecule: CCOC(=O)c1cc(-c2ccc(Cl)cc2)c([N+](=O)[O-])n1C
Result :: 0 (no)

Query :: Call for entry CCCCCCCCCCCCCCCCNc1ccn(C2CC(O)C(COC(c3ccccc3)(c3ccccc3)c3ccc(OC)cc3)O2)c(=O)n1 (stereo not drawn) :
Result :: 0 (no)

Query :: Record request — test call for COc1cc2nncc(SC)c2cc1OC
Result :: 0 (no)

Query :: What is the recorded call for this molecule in the test? O=c1sc(-c2nc3ccccc3[nH]2)c(/N=C/c2ccccc2)n1-c1ccccc1
Result :: 0 (no)

Query :: Can you look up the reported call for NC1CCCC2CCC(N)C12 (stereo not drawn) for me?
Result :: 0 (no)

Query :: Identify the outcome logged in this assay for the molecule shown: O=C1CC2(CCC(O)(c3cccs3)C(C(=O)c3cccs3)C2)C(=O)c2ccccc2N1 (stereo not drawn)
Result :: 0 (no)

Query :: Record lookup: outcome of this test for Cc1cc2c(cc1C)C(=O)C1(C2)Cc2cc3c(cc2C1=O)CCC3 (stereo not drawn) ?
Result :: 0 (no)

Query :: Record lookup: outcome of this test for Cc1ccc(N2CC(O)CSC2=Nc2ccccc2)cc1 (stereo not drawn) ?
Result :: 0 (no)

Query :: State the result this test recorded for CC1(C)CCCCCC(O)C(O)CCC(C)(C)C1=O (stereo not drawn) .
Result :: 0 (no)

Query :: Called result for CC(C)N1CCN(C(C)C)CCN(C(C)C)CC1.[O]=[Mo](=[O])=[O]
Result :: 0 (no)

Query :: What outcome does the record of this test show for O=C1NC(=O)C2C(=O)NC(=O)C1C2(c1ccccc1)c1ccc(Cl)cc1 (stereo not drawn) ?
Result :: 0 (no)

Query :: Name the outcome recorded for O=C(NCCCCNCCCNC(=O)C(F)(F)F)C(F)(F)F in the assay.
Result :: 0 (no)

Query :: Answer briefly: the call reported for Cc1cccc(-n2c(=S)[nH]c3c(sc(=O)n3-c3ccccc3C)c2=O)c1 in this assay.
Result :: 0 (no)

Query :: Could you kindly confirm the outcome this assay logged for Cc1cc(C)nc(NS(=O)(=O)c2ccc(NNc3c4ccccc4nc4c(C(=O)Nc5ccc(S(=O)(=O)Nc6ncccn6)cc5)cccc34)cc2)n1 ?
Result :: 0 (no)

Query :: Test call, this molecule: O=C1c2ccc(O)cc2OC(c2cc(O)c(O)c(O)c2)C1O (stereo not drawn)
Result :: 0 (no)

Query :: Identify the outcome logged in this assay for the molecule shown: O=C(Nc1ccc(S(=O)(=O)c2ccc(NC(=O)c3cc(S(=O)(=O)O)ccc3O)cc2)cc1)c1cc(S(=O)(=O)O)ccc1O (tested in a mixture with another compound)
Result :: 1 (yes)

Query :: Look up the recorded call for COC1(OC)C2(Cl)CCC1(Cl)C(OC(C)=O)C2 (stereo not drawn) in this test.
Result :: 0 (no)

Query :: Kindly provide the recorded test outcome for the following molecule: COc1ccc2[nH]c(=O)c(C(C)=O)c(O)c2c1
Result :: 0 (no)

Query :: Recorded test outcome, item Cc1ccc(/C=C(\C#N)C(=O)c2ccccc2)cc1
Result :: 0 (no)

Query :: For this molecule, state the assay outcome: CC(C(=O)Oc1ccc2ccccc2c1-c1c(O)ccc2ccccc12)c1ccccc1 (stereo not drawn)
Result :: 0 (no)

Query :: Record lookup: outcome of this test for CN1c2ccccc2Sc2c1n[nH]c2-c1ccccc1 ?
Result :: 0 (no)

Query :: Check the results log: what was the call for COc1ccc(OC)c(CCc2cc(OC)c(OC)cc2C)c1 ?
Result :: 0 (no)

Query :: What call does the record list for CC(C)CCC[C@@H](C)C1CCC2[C@@H]3CCC4CC(CCC=C(c5cc(Cl)c(OC(=O)c6ccccc6)c(C(=O)O)c5)c5cc(Cl)c(OC(=O)c6ccccc6)c(C(=O)O)c5)CC[C@]4(C)C3CC[C@@]21C (stereo partly drawn) ?
Result :: 0 (no)

Query :: Outcome? COC(=O)CCC(=O)c1ccc2c(c1)CC1(C2)Cc2ccc3c(c2C1)CCCC3=O (stereo not drawn)
Result :: 0 (no)

Query :: Hello, I am checking results. What call was entered for O=[N+]([O-])C(=C(\Cl)NCCO)/C(Cl)=C(/Cl)Br ?
Result :: 0 (no)

Query :: Assay result, entry Cc1cn2cc(-c3ccncc3)nc2s1 — outcome?
Result :: 0 (no)

Query :: # fetch the recorded call for CC(=O)N1N=C(c2ccc3ccccc3c2O)CC1c1cccs1 (stereo not drawn) here
Result :: 0 (no)

Query :: What outcome does the record of this test show for Cc1ccc(NC2=NCCS2)c(C)c1 ?
Result :: 0 (no)

Query :: Which result was noted for this molecule in the test: CCOC(=O)NC(Nc1ccc(S(=O)(=O)Nc2ncccn2)cc1)(C(=O)OCC)C(F)(F)F (stereo not drawn)
Result :: 0 (no)

Query :: Recorded test call requested for O=C1COc2cc3c(cc2N1)SCCC(=O)N3
Result :: 0 (no)

Query :: In this assay, the call recorded for O=NN(CCCl)C(=O)/N=N/C(=O)N(CCCl)N=O was what?
Result :: 0 (no)

Query :: GET /call?item= COC(=O)c1c(C)cccc1CC1Cc2c(C)cccc2C1=O (stereo not drawn) returns the recorded outcome of this test.
Result :: 0 (no)

Query :: Write down the call the test reported for this molecule. Item: CCOC(=O)/C(C(=S)NCc1ccccc1)=C(/N)N1CCCC1
Result :: 0 (no)

Query :: Record lookup: outcome of this test for CC1(C)OC2C(=O)C=C(COCc3ccccc3)C2O1 (stereo not drawn) ?
Result :: 0 (no)

Query :: So what was the verdict on O=C(c1ccccc1)c1ccsc1C(=O)O in this test?
Result :: 0 (no)

Query :: Recorded test outcome, item Cc1cc(C)c(C2CC(O)C(CO)O2)cc1C (stereo not drawn)
Result :: 0 (no)

Query :: Could you check what this test reported for N[C@H]1CCC[C@@H](O)C1O (stereo partly drawn) ?
Result :: 0 (no)

Query :: I'd appreciate the recorded outcome for N/C(Cc1ccc(Cl)cc1)=N/O from this test.
Result :: 0 (no)

====

# System: CEM cells HIV-1 protection, formazan growth assay
# experiment: NCI AIDS Antiviral Assay
experimental-endpoint: EC50

Reported EC50 for CC(=O)N(C)CCc1c[nH]c2ccccc12 was > 200 µM

The reported EC50 of the compound CC1=CC(=O)/C(=C/N2C(=S)NC(=O)/C2=C/c2cccc([N+](=O)[O-])c2)C(=O)O1 was > 200 µM

The compound identified as CC(Oc1ccccc1)C(=O)NN (stereo not drawn) registered its EC50 at > 200 µM

// EC50 value for CC(C)=CCc1ccc2[nH]c3c(c2c1)C(=O)C(=O)C(C)=C3C(O)C(C)O (stereo not drawn) : > 200 µM

Per the records, this compound ( CC(C#N)(NO)C(C)(C#N)NO (stereo not drawn) ) has EC50 equal to > 200 µM

Entry Clc1ccccc1C(c1ccccc1)(c1ccccc1)n1ccnc1 ; EC50 = > 200 µM

So, NNC(=O)c1cc(=O)[nH][nH]1 ? Its EC50 was > 200 µM

// field: EC50; key: Cc1ccc([N+](=O)[O-])cc1N=NC(=O)NNc1cc([N+](=O)[O-])ccc1C ; value = > 200 µM

# compound NS(=O)(=O)c1ccc(NC(=S)/N=C/C2=C(O)c3ccccc3C2=O)cc1 ; its EC50 = > 200 µM

The recorded EC50 for entry CCOC(=O)/C=C1\Oc2ccccc2C1(C)O (stereo not drawn) equals > 562 µM

The compound listed as COC(Cc1ccccc1)NC(=O)[C@@]12CCCC[C@@H]1C=Cc1ccccc12 (stereo partly drawn) has a reported EC50 of > 55 µM

Recorded result, O/N=C(/C(Cl)=C(Cl)Cl)C(Cl)Cl , EC50: > 200 µM

// EC50 value for COc1cccc(/C=C2\N=C(Cl)OC2=O)c1O : > 20.4 µM

The value of EC50 measured for the compound C=C(C(=O)OC)c1cc2ccccc2n1S(=O)(=O)c1ccccc1 turned out to be > 20 µM

For CCOc1c(OC)cc(CNNc2nccs2)cc1OC the compound record lists EC50 as > 200 µM

The recorded EC50 for entry COc1ccc(CSc2nc3ccccc3nc2-c2cccs2)cc1 equals > 3.98 µM

Recorded EC50 (compound CCO/C=N/C1=C(C#N)C(c2ccc(OC)c(OC)c2)c2c(-c3ccccc3)nn(-c3ccccc3)c2O1 (stereo not drawn) ): > 100 µM

get_value(item= CCOC(=O)c1cc2cc3c4c(c2oc1=O)CCCN4CCC3 , readout=EC50) returns > 115 µM

Per the records, this compound ( CC1(C)NC(=O)[C@]2(C[C@@H](O)C=C2CO)O1 ) has EC50 equal to > 200 µM

Recorded EC50 (compound N#CC(C(=O)/C(=N/Nc1nc(=S)[nH]n1N)C(C#N)c1ccccc1)c1ccccc1 (stereo not drawn) ): > 17.4 µM

// EC50 value for CCCC(=O)N[C@@H](Cc1cc(I)c(O)c(I)c1)C(=O)NCCCNCCCCNCCCNC(=O)[C@@H](N)CCCN=C(N)N : > 100 µM

The recorded EC50 for entry COC(=O)c1cc(C#N)[nH]c1-c1cc(Br)cs1 equals > 200 µM

Recorded EC50 (compound O=c1oc2ccccc2c(O)c1C(c1ccc2c(c1)OCO2)c1c(O)c2ccccc2oc1=O ): > 200 µM
